assay-system: T1, VEGFR-2-Fc (UniProt P35968 20-322)
T1 construct: domain: first 3 Ig domains; conditioned supernatant of 293T cells; also called VEGFR-2-Fc fusion protein; not shown: Fc fragment of the pIg vector
T1 sequence (P35968 20-322): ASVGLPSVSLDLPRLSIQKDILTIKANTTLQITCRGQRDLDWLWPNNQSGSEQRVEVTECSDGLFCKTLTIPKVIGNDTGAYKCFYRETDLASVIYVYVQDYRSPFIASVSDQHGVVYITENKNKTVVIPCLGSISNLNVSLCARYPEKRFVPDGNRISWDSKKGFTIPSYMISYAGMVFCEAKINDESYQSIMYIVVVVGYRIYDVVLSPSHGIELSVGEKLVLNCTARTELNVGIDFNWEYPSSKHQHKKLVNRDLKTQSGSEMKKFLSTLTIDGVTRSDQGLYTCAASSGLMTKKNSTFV
experiment-notes: receptor-Fc IP
Source text: The binding assay procedure was identical to the immunoprecipitation using pentahistidine antibody described in Example 2, apart from the composition of the immunoprecipitation (IP) mixes. […]
measured-quantity: binding result

- binder: "63-14 (ligand) GQNHHEVVKFMDVYQRSYCHPREVCIDVGKEYPDEIEYIFKPPCVSVYRCGGCCNDEGLECMNTSTSYLSKTLFEITVPLSQGPKPVTISFANHTSCRCMSKLD"
  binding result: "no binding"
- binder: "11-11 (ligand) GQNHHEVVKFMDVYQRSYCHPIETLVDIFQEYPDEIEYIFKPSCVPLMRCGGCCNSEGLQCVPTEESNITMQIMRITVPLSQGPKPVTISFLQHNKCECRPKKD"
  binding result: "binds"
- binder: "74-10 (ligand) GQNHHEVVKSIDNEWRKTQCMPREVCIDVGKEFGVATNTFFKPSCVPLMRCGGCCNDEGLECMNTSTSYLSKTLFEITVPLSQGPKPVTISFLQHNKCECRPKKD"
  binding result: "binds"
- binder: "82-1 (ligand) AHYNTEILKFMDVYQRSYCHPIETLVDIFQEFGVATNTFFKPPCVSVYRCGGCCNDEGLECVPTEESNITMQIMRIKPHQGQHIGEMSFLQHNKCECRPKKD"
  binding result: "no binding"
- binder: "61-10 (ligand) GQNHHEVVKFMDVYQRSYCHPREVCIDVGKEYPDEIEYIFKPSCVPLMRCGGCCNDEGLECMNTSTSYLSKTLFEITVPLSQGPKPVTISFLQHNKCECRPKKD"
  binding result: "no binding"
- binder: "52-9 (ligand) AHYNTEILKSIDNEWRKTQCMPIETLVDIFQEFGVATNTFFKPPCVSVYRCGGCCNDEGLECVPTEESNITMQIMRITVPLSQGPKPVTISFLQHNKCECRPKKD"
  binding result: "no binding"
- binder: "84-9 (ligand, clone entry) AHYNTEILKFMDVYQRSYCHPIETLVDIFQEFGVATNTFFKPSCVPLMRCGGCCNDEGLECVPTEESNITMQIMRITVPLSQGPKPVTISFLQHNKCECRPKKDL"
  binding result: "binds"

# input binder: 33-7 (ligand) GQNHHEVVKSIDNEWRKTQCMPIETLVDIFQEYPDEIEYIFKPPCVSVYRCGGCCNSEGLQCVPTEESNITMQIMRIKPHQGQHIGEMSFANHTSCRCMSKLD ; wanted: its binding result no binding
